Test system: HEK-293T
PROTOCOL: Multiplex assay against HEK293T
Format: toxicity, cell-based
EXPERIMENTAL PARAMETERS: human, 12 h, 10 µM, compound concentration 10 uM, replicate 1
Param threshold (50%) applies to Population Pyknosed Nuclei (%); output YES when value >= threshold, NO when value < threshold.

Reference set (3 entries):
1) CNC(=O)Nc1ccc(-c2nc(N3CC4CCC(C3)O4)c3cnn(C4CCC5(CC4)OCCO5)c3n2)cc1 :: YES
2) C[C@]12CC[C@@H]3c4ccc(O)cc4CC[C@H]3[C@@H]1CC[C@@H]2O :: YES
3) C=CC(=O)Nc1cccc(Oc2nc(Nc3ccc(N4CCN(C)CC4)cc3OC)ncc2Cl)c1 :: NO

In: Quick check: does "CCCSc1nc(N[C@@H]2C[C@H]2c2ccc(F)c(F)c2)c2nnn([C@@H]3C[C@H](OCCO)[C@@H](O)[C@H]3O)c2n1" have Population Pyknosed Nuclei (%) greater than or equal to 50%?
Out: YES

In: Quick check: does "Cc1nc(N2CC[C@H](O)C2)ncc1-c1cc(C(F)(F)F)cc2[nH]ncc12" have Population Pyknosed Nuclei (%) greater than or equal to 50%?
Out: NO

In: Quick check: does "O=c1[nH]c2ccccc2n1C1CCN(Cc2ccc(-c3[nH]c4cc5ncnc5cc4nc3-c3ccccc3)cc2)CC1" have Population Pyknosed Nuclei (%) greater than or equal to 50%?
Out: NO

* * *

// reported Population Fragmented Nuclei (%) for each item listed
Test system: U2OS
PROTOCOL: Multiplex assay against U2OS
Assay type: toxicity, cell-based
EXPERIMENTAL PARAMETERS: human, 48 h, 1 µM, compound concentration 1 uM, replicate 1
Could you give me the number in %? Just the number is fine.

Below are worked cases with known answers.
1) Cc1ccc(C)c(Oc2ccncc2C(=O)N2CCN(C3CC3)c3ccccc32)c1 :: 4
2) COc1ccccc1CN[C@H]1C2CCN(CC2)[C@H]1C(c1ccccc1)c1ccccc1 [CP-96345] :: 7
3) O=c1cc(N2CCOCC2)oc2c(-c3cccc4c3sc3ccccc34)cccc12 :: 7

So for COc1ccc(-c2ccc3ncc4c(c3c2)n(-c2ccc(N3CCNCC3)c(C(F)(F)F)c2)c(=O)n4C)cn1.O=C(O)/C=C\C(=O)O [BGT-226] , the logged Population Fragmented Nuclei (%) turned out to be 45

So for "CC(C)NC(=O)N1CC[C@H](NC2=Nc3cc(F)ccc3N(CC(F)F)c3ccc(Cl)cc32)C1" , the logged Population Fragmented Nuclei (%) turned out to be 10

So for O=C(c1cc2c(cc1F)OC(c1ccc(F)cc1)(c1ccc(Cl)cc1Cl)O2)N1CCOCC1 (configuration not stated) , the logged Population Fragmented Nuclei (%) turned out to be 14

So for "Cl.O=C(O)c1cc(-c2ccc(C3CCNCC3)cc2)c2ccc(-c3ccc(C(F)(F)F)cc3)cc2c1" , the logged Population Fragmented Nuclei (%) turned out to be 9

So for Cc1cccc(CN2CCN(C(c3ccccc3)c3ccc(Cl)cc3)CC2)c1.Cl.Cl (configuration not stated) , the logged Population Fragmented Nuclei (%) turned out to be 5

* * *

Tested on: Fibroblast
PROTOCOL: Multiplex assay against human fibroblast
Type: toxicity, cell-based
EXPERIMENTAL PARAMETERS: 48 h, 10 µM, compound concentration 10 uM, replicate 1
PROPERTY LABEL: Population Mitochondria Different-Phenotype (%)
Could you give me the number in %? Just the number is fine.

Below are worked cases with known answers.
1) CNC(=O)Nc1ccc(-c2nc(N3CC4CCC(C3)O4)c3cnn(C4CCC5(CC4)OCCO5)c3n2)cc1 :: 61
2) Cc1c[nH]c2nccc(Oc3c(F)cc(Nc4cc(Cl)nc(N)n4)cc3F)c12 :: 16
3) O=C(c1cc2c(cc1F)OC(c1ccc(F)cc1)(c1ccc(Cl)cc1Cl)O2)N1CCOCC1 (centres undefined) :: 70
4) CC(C)(C)NC[C@H](O)COc1nsnc1N1CCOCC1 :: 0
5) CC(C)c1noc(N2CCC(COc3ccc(-c4ccc(S(C)(=O)=O)cc4)nc3)CC2)n1 :: 4
6) COC(=O)C1=C(C)NC(C)=C(C(=O)OCCCN2CCC(c3ccccc3)(c3ccccc3)CC2)[C@H]1c1cccc([N+](=O)[O-])c1 :: 22

So for CCc1nn(CCCN2CCN(c3cccc(Cl)c3)CC2)c(=O)n1CCOc1ccccc1.Cl [NEFAZODONE HYDROCHLORIDE] , the logged Population Mitochondria Different-Phenotype (%) turned out to be 62

So for "CC(C)NC(=O)N1CC[C@H](NC2=Nc3cc(F)ccc3N(CC(F)F)c3ccc(Cl)cc32)C1" , the logged Population Mitochondria Different-Phenotype (%) turned out to be 21

So for CC1=C(C(=O)Nc2cc3cn[nH]c3cc2F)C(c2ccc(C(F)(F)F)cc2)CC(=O)N1 (centres undefined) , the logged Population Mitochondria Different-Phenotype (%) turned out to be 4
